Biological target: T1, TNFR1 (Homo sapiens, UniProt P19438)
T1 chain: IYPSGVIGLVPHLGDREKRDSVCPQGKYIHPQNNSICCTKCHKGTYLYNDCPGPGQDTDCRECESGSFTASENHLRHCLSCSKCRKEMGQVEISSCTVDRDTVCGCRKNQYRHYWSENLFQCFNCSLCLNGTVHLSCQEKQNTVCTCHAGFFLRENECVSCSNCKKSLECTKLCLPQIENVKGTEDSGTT
Assay: yeast display SC50
metric.name: apparent Kd (screen) (nM)

E34F (designed binder) SMEEEVEKAAKEYEKKKKEAIEKHLEKLKAKDKFAAERFLKELEEAAKEYAKDEAKTMSEEEAKRRAKKYKEKVLLSELSEEEQKEIKEAEEKLVRTILKYVEEAAK
0.446

A: A67S (designed binder) SMEEEVEKAAKEYEKKKKEAIEKHLEKLKAKDKEAAERFLKELEEAAKEYAKDEAKTMSEEEAKRRSKKYKEKVLLSELSEEEQKEIKEAEEKLVRTILKYVEEAAK
B: L99D (designed binder) SMEEEVEKAAKEYEKKKKEAIEKHLEKLKAKDKEAAERFLKELEEAAKEYAKDEAKTMSEEEAKRRAKKYKEKVLLSELSEEEQKEIKEAEEKLVRTIDKYVEEAAK
C: M2L (designed binder) SLEEEVEKAAKEYEKKKKEAIEKHLEKLKAKDKEAAERFLKELEEAAKEYAKDEAKTMSEEEAKRRAKKYKEKVLLSELSEEEQKEIKEAEEKLVRTILKYVEEAAK
input: Arrange by apparent Kd (screen), high to low. Field: ranking. Enter the labels in the order requested.
output: B, A, C
(B: 11.4 nM, A: 1.54 nM, C: 1.05 nM)
